# condition.details: 298.15 K; 100 kPa
assay.endpoint: viscosity (mPa·s)

>>> df
                            compound_string  assay_endpoint    val
0                                CC/C=C\CCO       viscosity  2.921
1  C[N+](C)(C)CCC[n+]1ccccc1.N#C[N-]C#N.N#C[N-]C#N       viscosity   1306
2                                     CCCCC       viscosity  0.212
3                                 OC1CCCCC1       viscosity  58.97
4          COP(=O)([O-])OC.C[N+]1(CCO)CCCC1       viscosity  980.6
5  CCCCCCn1cc[n+](C)c1.O=S(=O)([N-]S(=O)(=O)C(F)(F)F)C(F)(F)F       viscosity  65.94

====

# protocol.details: xn = mol fraction of the nth substance listed
# condition.details: 308.15 K; 101 kPa; x2 = 0.4
# binarize viscosity: threshold 2 mPa·s inclusive, high side TRUE, low side FALSE

                  compound  discrete_label
0         CCCCCCCO + CCCCO            TRUE
1          CCCCCCCO + CCCO            TRUE
2  CCN(CC)CCO + O=C1CCCCC1           FALSE
3            CCCCCCCO + CO            TRUE
4           CCCCCCCO + CCO            TRUE

====

# protocol.details: xn = mol fraction of the nth substance listed
# condition.details: 298.15 K; 101 kPa; x2 = 0.2
# binarize viscosity: threshold 3 mPa·s inclusive, high side criterion met, low side criterion not met

In [3]: df
Out[3]:
                  compound     discrete_label
0          CCCCCCCO + CCCO      criterion met
1           CCCCCCCO + CCO      criterion met
2  CCN(CC)CCO + O=C1CCCCC1  criterion not met
3            CCCCCCCO + CO      criterion met
4              CS(C)=O + O  criterion not met

====

The following compounds are shown together with reported viscosity values.
# protocol.details: xn = mol fraction of the nth substance listed
# condition.details: 308.15 K; 101 kPa; x2 = 0.5
± gives the uncertainty stated by the source.
assay.endpoint: viscosity

                  compound  assay_endpoint                  val
0          CCCCCCCO + CCCO       viscosity  2.756 ± 0.025 mPa·s
1           CCCCCCCO + CCO       viscosity  2.294 ± 0.021 mPa·s
2  CCN(CC)CCO + O=C1CCCCC1       viscosity  1.703 ± 0.011 mPa·s
3            CCCCCCCO + CO       viscosity  1.967 ± 0.017 mPa·s

====

# protocol.details: xn = mol fraction of the nth substance listed
# condition.details: 308.15 K; 101 kPa; x2 = 0.9
The following compounds are shown together with reported viscosity values.
assay.endpoint: viscosity (mPa·s)

>>> print(df.to_string())
           compound  assay_endpoint     val
0  CCCCCCCO + CCCCO       viscosity   2.256
1     CCCCCCCO + CO       viscosity  0.6998
2   CCCCCCCO + CCCO       viscosity   1.719
3    CCCCCCCO + CCO       viscosity   1.147

Each recorded value in this set is attributed to the CheMixHub viscosity set.
